- EXPERIMENT_NOTES: Plasma pharmacokinetics at steady state of sorafenib
- Type: in vivo, patients with advanced cancer
- REPORTED_CONDITIONS: plasma; Day 1 of cycle 5; sorafenib 400 mg bid
MEASURED_QUANTITY: AUCnorm, geometric mean (% CV)

Problem: Returns the measured AUCnorm, geometric mean (% CV) for the input compound. Input: `CNC(=O)c1cc(Oc2ccc(NC(=O)Nc3ccc(Cl)c(C(F)(F)F)c3)cc2)cc[n+]1[O-]`
Result: 0.9 (103.2) kg h/L

Problem: Same for `NC(=O)c1cc(Oc2ccc(NC(=O)Nc3ccc(Cl)c(C(F)(F)F)c3)cc2)cc[n+]1[O-]`
Result: 0.3 (128.1) kg h/L

Problem: Same for `CNC(=O)c1cc(Oc2ccc(NC(=O)Nc3ccc(Cl)c(C(F)(F)F)c3)cc2)ccn1`
Result: 6.3 (69.8) kg h/L

Problem: Same for `NC(=O)c1cc(Oc2ccc(NC(=O)Nc3ccc(Cl)c(C(F)(F)F)c3)cc2)ccn1`
Result: 0.2 (80.9) kg h/L

* * *

- EXPERIMENT_NOTES: Plasma pharmacokinetics at steady state of sorafenib
- Assay type: in vivo, patients with advanced cancer
- REPORTED_CONDITIONS: human, plasma, oral, 400 mg, AUC, geometric mean (% CV), AUC(0–12); plasma; Day 1 of cycle 2; sorafenib 400 mg bid; n = 14
MEASURED_QUANTITY: AUC (ng·h/mL)
API: value field is a number in ng·h/mL; no unit string.

Problem: Returns the measured AUC for the input compound. Input: `CNC(=O)c1cc(Oc2ccc(NC(=O)Nc3ccc(Cl)c(C(F)(F)F)c3)cc2)ccn1`
Result: 42800
